B1: library; numbered along this chain (parent)
chain: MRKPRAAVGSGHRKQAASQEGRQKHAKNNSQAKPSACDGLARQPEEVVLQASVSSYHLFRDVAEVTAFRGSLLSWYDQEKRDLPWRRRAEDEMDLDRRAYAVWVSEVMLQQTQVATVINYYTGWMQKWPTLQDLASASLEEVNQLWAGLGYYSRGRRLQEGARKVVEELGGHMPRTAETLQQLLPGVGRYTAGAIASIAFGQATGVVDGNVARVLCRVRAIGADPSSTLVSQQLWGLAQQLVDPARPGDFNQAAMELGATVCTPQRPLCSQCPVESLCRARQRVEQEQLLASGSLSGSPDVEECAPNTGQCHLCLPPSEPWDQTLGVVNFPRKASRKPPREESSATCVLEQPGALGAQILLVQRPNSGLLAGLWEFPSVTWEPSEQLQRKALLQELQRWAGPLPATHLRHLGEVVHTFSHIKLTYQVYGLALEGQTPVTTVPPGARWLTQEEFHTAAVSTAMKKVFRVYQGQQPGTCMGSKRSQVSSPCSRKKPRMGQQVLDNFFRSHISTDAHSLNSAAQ

# Variants of: B1
# assay-info: 8OG:A repair function score (normalized; synonymous = 0, nonsense = -1) (normalized log-likelihood score); higher = more repair activity (WT-like);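 also: cells sorted at 72 h after reporter transfection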
# recorded-conditions: with 8OG:A DNA repair reporter (GFP) in HEK-293 MUTYH KO cells
Entries and their 8OG:A repair function score
Lab note: jot down the number only; don't add units.

>  <variant-string>
W146T

>  <meas-value>
-0.294

$$$$

Consider the variant `H407S` and give its measured 8OG:A repair function score.
-0.109

Would you mind telling me what 8OG:A repair function score value was observed for `T449H` ?
-0.131

Tell me the measured 8OG:A repair function score of `L241S` , please.
-0.626

Reported 8OG:A repair function score for `H514R` : what is it?
-0.0107

Look up 8OG:A repair function score: `P488W`
-0.00344

Requested read-out: 8OG:A repair function score. Entry: `G326R`
-0.176

# get_value(readout='8OG:A repair function score', item= `Q310I` )
0.0174

# query: 8OG:A repair function score of entry `H514W`
-0.03
